The values you see were collected from PubChem BioAssay AID2060900.

# System: 521955-158-R2-J5-PDC complex spheroids, viability
# assay explanation: Anticancer human tumor 521955-158-R2-J5-PDC patient-derived pancreatic carcinoma cell line growth inhibition [RAS]; active means viability on the fitted dose curve at most 10% of control; inactive means the rest
# test context: second compound 10 µM; first compound 0.316 µM
Please reply with one of these outcomes: active, inactive

Task: Hi, sorry to bother you, what did the test record for C=CC(=O)Nc1cc(Nc2nccc(-c3cn(C)c4ccccc34)n2)c(OC)cc1N(C)CCN(C)C + C#Cc1c(F)ccc2cc(O)cc(-c3ncc4c(N5CC6CCC(C5)N6)nc(OCC56CCCN5CC(F)C6)nc4c3F)c12 ?
Result: inactive

Task: Tell me the recorded outcome of this test for CC(=O)OC12COC1CC(O)C1(C)C(=O)C(O)C3=C(C)C(OC(=O)C(O)C(NC(=O)OC(C)(C)C)c4ccccc4)CC(O)(C(OC(=O)c4ccccc4)C21)C3(C)C (stereo not given) + C#Cc1c(F)ccc2cc(O)cc(-c3ncc4c(N5CC6CCC(C5)N6)nc(OCC56CCCN5CC(F)C6)nc4c3F)c12 .
Result: inactive

Task: Assay result, entry NC1c2ccccc2OC12CCN(c1cnc3c(N4CCCc5ncccc54)n[nH]c3n1)CC2 (stereo not given) + C#Cc1c(F)ccc2cc(O)cc(-c3ncc4c(N5CC6CCC(C5)N6)nc(OCC56CCCN5CC(F)C6)nc4c3F)c12 — outcome?
Result: active

Task: Give the logged outcome of this assay for the following compound: C=CC(=O)N1CCN(c2nc(OCC3CCCN3C)nc3c(F)c(-c4nc(N)cc(C)c4C(F)(F)F)c(Cl)cc23)C(C)C1 (stereo not given) + C#Cc1c(F)ccc2cc(O)cc(-c3ncc4c(N5CC6CCC(C5)N6)nc(OCC56CCCN5CC(F)C6)nc4c3F)c12
Result: inactive

Task: Can you look up the reported call for CCC(CC)c1cc(NC2CCC(N)C2)n2nccc2n1 (stereo not given) + C#Cc1c(F)ccc2cc(O)cc(-c3ncc4c(N5CC6CCC(C5)N6)nc(OCC56CCCN5CC(F)C6)nc4c3F)c12 for me?
Result: inactive

###

Each entry below carries its reported viability, T/C.
# Tested on: 521955-158-R2-J5-PDC complex spheroids, viability
# assay explanation: Anticancer human tumor 521955-158-R2-J5-PDC cell line growth inhibition [RAS];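 further: spheroids also contain HUVEC endothelial cells and mesenchymal stem cells as stroma; compound exposure lasted seven days before the viability read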
# test context: second compound 0.0949 µM; first compound 10 µM; hits give low values
Give the number; % is assumed, so skip it.

The following compounds have reported results that may help.
compound: CC(=O)OC12COC1CC(O)C1(C)C(=O)C(O)C3=C(C)C(OC(=O)C(O)C(NC(=O)OC(C)(C)C)c4ccccc4)CC(O)(C(OC(=O)c4ccccc4)C21)C3(C)C (centres undefined) + CCn1c(-c2cccnc2C(C)OC)c2c3cc(ccc31)N1CCOC(CC(NC(=O)C(C(C)C)N(C)C(=O)C3(F)CCN(C(=O)C#CC(C)(C)N(C)C)CC3)C(=O)N3CCCC(N3)C(=O)OCC(C)(C)C2)C1
system under test: 521955-158-R2-J5-PDC complex spheroids, viability
units of measure: %
observed: 41.1

compound: Cc1nc(N2CCC3(CC2)COC(C)C3N)c(CO)nc1Sc1ccnc(N)c1Cl (centres undefined) + CCn1c(-c2cc(N3CCN(C)CC3)cnc2C(C)OC)c2c3cc(ccc31)-c1csc(n1)CC(NC(=O)C1CC1C)C(=O)N1CCCC(N1)C(=O)OCC(C)(C)C2
system under test: 521955-158-R2-J5-PDC complex spheroids, viability
units of measure: %
observed: 10.7

compound: CC(C)NCC(C(=O)N1CCN(c2ncnc3c2C(C)CC3O)CC1)c1ccc(Cl)cc1 (centres undefined) + CCn1c(-c2cc(N3CCN(C)CC3)cnc2C(C)OC)c2c3cc(ccc31)-c1csc(n1)CC(NC(=O)C1CC1C)C(=O)N1CCCC(N1)C(=O)OCC(C)(C)C2
system under test: 521955-158-R2-J5-PDC complex spheroids, viability
units of measure: %
observed: 1.9

Task: Name the recorded viability, T/C of the item CCC(CC)c1cc(NC2CCC(N)C2)n2nccc2n1 (centres undefined) + CCn1c(-c2cc(N3CCN(C)CC3)cnc2C(C)OC)c2c3cc(ccc31)-c1csc(n1)CC(NC(=O)C1CC1C)C(=O)N1CCCC(N1)C(=O)OCC(C)(C)C2 in your answer.
Result: 8.98
